Where do these numbers come from? They come from ChEMBL document CHEMBL1135038.

Measured pKi by item
Protein target, amino acids: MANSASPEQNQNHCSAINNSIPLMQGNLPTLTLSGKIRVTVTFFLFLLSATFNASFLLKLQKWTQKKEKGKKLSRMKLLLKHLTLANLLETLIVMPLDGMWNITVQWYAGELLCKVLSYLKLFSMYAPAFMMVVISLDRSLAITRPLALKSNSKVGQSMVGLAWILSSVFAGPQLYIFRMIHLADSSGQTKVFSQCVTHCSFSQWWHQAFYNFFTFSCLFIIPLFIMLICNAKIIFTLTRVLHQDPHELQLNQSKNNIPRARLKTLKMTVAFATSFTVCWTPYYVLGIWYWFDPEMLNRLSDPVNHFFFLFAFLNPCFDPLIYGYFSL
// field semantics: pKi = negative decimal log of concentration (mol/L)

Take a look at these entries with their results.
CCOC(=O)c1cn(Cc2ccccc2C#N)c2c(C#N)c(-c3ccc(OC)cc3)c(CN(C)CCc3ccccn3)n2c1=O : 5.31
CCC(CC)OC(=O)c1cn(Cc2ccccc2F)c2c(C#N)c(-c3ccc(OC4CCCC4)cc3)c(CN(C)CCc3ccccn3)n2c1=O : 7.51
CCOC(=O)c1cn(Cc2ccccc2Cl)c2c(C#N)c(-c3ccc(OC)cc3)c(CN(C)CCc3ccccn3)n2c1=O : 5.07

For the next question, use this molecule.
Query :: Request the reported pKi associated with CCOC(=O)c1cn(Cc2ccc(F)cc2F)c2c(C#N)c(-c3ccc(OCC(C)C)cc3)c(CN(C)CCc3ccccn3)n2c1=O
Result :: 6.40
